Collected IC50 values appear next to each entry.
Test system: Jurkat
Test: Cytotoxicity against human Jurkat T cells after 48 hrs by MTT assay
Assay type: functional, cell-based
Give the value, in units of µM, as a plain number.

Take a look at these entries with their results.
1) Cc1cc(O)cc(O)c1C(=O)O[C@@H]1C[C@]2(C)[C@@H]3[C@H](C=C(C=O)[C@]12O)CC(C)(C)[C@@H]3O	86.2
2) COc1cc(O)c(C(=O)O[C@@H]2C[C@@]3(C)C2=C(C=O)[C@@H](O)[C@@H]2CC(C)(C)C[C@@H]23)c(C)c1Cl	3.93

Now for another entry.
Recall the reported IC50 of `COc1cc(O)c(C(=O)O[C@@H]2C[C@]3(C)[C@H]4[C@@H](O)C(C)(C)C[C@@]4(O)C=C(C=O)[C@]23O)c(C)c1Cl` on Jurkat and write it down.
58.8
